test system: NCI-H460 lung; assay: NCI-60 one-dose screen, 48 h (100 = growth as untreated, 0 = no growth, -100 = all killed); details: 10 µM unless noted
The panel holds about 83,000 compounds, 20% with a hit somewhere; the sample as a whole holds those more often.
Kindly apply the following: TRUE if growth is less than 20%, FALSE in every other case.

>>> category("COc1c(C(=O)Nc2ccc(C)c(Br)c2)ccc2ccccc12")
"FALSE"
>>> category("COc1ccccc1CNc1c2ccccc2nc2ccccc12")
"TRUE"
>>> category("CC(C)c1ccc(C(=O)Nc2sc3c(c2C(N)=O)CCC(=O)C3)cc1")
"TRUE"
>>> category("O=C(Nc1ccc(Oc2cccc(Cl)c2)c(Cl)c1)c1cnccn1")
"TRUE"
>>> category("Nc1nc(-c2ccc(Cl)cc2)nc2c1sc(=S)n2-c1ccccc1")
"TRUE"
>>> category("CCOCCNC1=C(Cl)C(=O)c2ccccc2C1=O")
"FALSE"

----------
tested on: KM12 colon; assay: NCI-60 one-dose screen, 48 h; details: 10 µM unless noted
The panel holds about 83,000 compounds, 20% with a hit somewhere; the sample as a whole holds those more often. Activity calls are given as the source filed them. The calls were made as follows: active = growth percent below 10; inactive = the rest.
Classes used: active, inactive

>>> category("Cn1cc(-c2csc(-c3c[nH]c4ccc(Br)cc34)n2)c2ccnc(Cl)c21")
"inactive"
>>> category("COC(=O)c1c(C)nc(C)c2c1C(=O)C(Br)=C(NCc1ccccc1)C2=O")
"inactive"
>>> category("CCCCCCCCCCCCCCCCCCOc1ccccc1CC(=O)OCC[N+](C)(C)C")
"active"
>>> category("O=C1NC2(Nc3ccccc31)C(=O)Nc1c(Cl)cc(Cl)cc12 (stereo not given)")
"inactive"
>>> category("O=C(/C=C/c1ccccc1)Nc1ncc(Cc2ccccc2Cl)s1")
"inactive"
>>> category("O=C(CN1CCCCC1)Nc1nc(-c2cc3ccccc3oc2=O)cs1")
"inactive"
>>> category("C/C(=N\\O)c1ccc(Cl)cc1")
"inactive"
>>> category("O=C(O)c1cn(C2CC2)c2cc(N3CCN(C(=O)N(c4ccccc4)c4nc(-c5ccccc5)cs4)CC3)c(F)cc2c1=O")
"active"
>>> category("C#CCOC(=O)/C=C/c1cn(-c2ccccc2)nc1-c1ccc(OC)cc1")
"inactive"
>>> category("CC/C(=C(/c1ccc(Cl)cc1)c1ccc(OCCN2CCCCC2)cc1)c1ccc(OC)cc1")
"inactive"
>>> category("CCn1c(SCC(=O)N/N=C(\\C)c2ccc(Cl)cc2)nc2c1c(=O)n(C)c(=O)n2C")
"inactive"
>>> category("C=C1CC[C@@H]2[C@](C)(COC(C)=O)[C@H](OC(C)=O)CC[C@@]2(C)[C@@H]1CC(Nc1ccc(S(=O)(=O)Nc2ncccn2)cc1)C1=CCOC1=O (stereo not given in full)")
"active"
>>> category("COC1=CC(c2ccc[nH]2)=N/C1=C\\c1[nH]c(C)c(C)c1CCC(=O)OCc1ccccc1")
"active"
>>> category("Cc1sc2nc(NCCc3c[nH]c4ccc(Cl)cc34)[nH]c(=O)c2c1C")
"active"
>>> category("COc1ccc(Nc2ncc(Br)c(NCCCNC(=O)c3cccs3)n2)cc1")
"inactive"
>>> category("O=c1c2ccccc2n2cnc3ccc(Cl)c1c32")
"inactive"
>>> category("Fc1cccc(Oc2ccc(Nc3ncnc4ccc(OCCCN5CCOCC5)cc34)cc2Cl)c1")
"inactive"
>>> category("COC(=O)CC[C@H](C)[C@H]1CC[C@H]2[C@@H]3CC[C@@H]4CC5(CC[C@]4(C)[C@H]3CC(=O)[C@]12C)Nc1ccccc1NC5=NC(C)(C)C (stereo not given in full)")
"inactive"
>>> category("Cc1ccc(C(=O)c2ccc(CC(=O)N/N=C/c3ccccc3O)n2C)cc1")
"inactive"
>>> category("Cc1c[n+](Cc2ccc3ccccc3c2)cn1Cc1ccc2ccccc2c1")
"active"

The measured values listed here are drawn from PubChem BioAssay (NCI).
